Test system: rape
Assay: Test B pre/postemergence rape
Assay type: in vivo, Brassica napus
Conditions: Preemergence, Rate 250 g/ha; scale of 0 to 10 where 0 is no effect and 10 is complete control
In this section, each of the compounds is paired with its reported Rape plant response rating.
Give your answer as a number; write no unit.

Task: Hi! What's the reported Rape plant response rating for CC(C)N(C(=O)n1oc(=O)n(CCC2CCCCC2)c1=O)c1ccc(F)cc1 on rape?
Result: 0

Task: Hi! What's the reported Rape plant response rating for CC(C)N(C(=O)n1oc(=O)[nH]c1=O)c1ccc(F)cc1F on rape?
Result: 0

Task: Hi! What's the reported Rape plant response rating for CC(C)N(C(=O)n1oc(=O)n(C2CCC2)c1=O)c1ccc(F)cc1 on rape?
Result: 7

Task: Hi! What's the reported Rape plant response rating for COCCOCn1c(=O)on(C(=O)N(c2ccc(F)cc2)C(C)C)c1=O on rape?
Result: 5
